System: TMR-β3Rβ3Rβ3Rβ3K-NH2 (synthetic)
Assay: FP
Settings: 2 mM NaCl, pH 7.4
ATTRIBUTE_MEASURED: Kd (nM)
Respond with the bare value in nM.

According to the records, this sequence GACGACTAGGACGACGACGAGGATGACGAC (double strand) [30-mer dsDNA] displays Kd of 49

---

System: TMR-(CH2)5-KRRR-NH2 (L) (synthetic)
Sequence: KRRR
Assay: FP
Settings: 2 mM NaCl, pH 7.4
ATTRIBUTE_MEASURED: pKd
Answer as the number alone; pKd is minus log10 of concentration in mol/L.

Tested on TMR-(CH2)5-KRRR-NH2 (L) (synthetic), the item GACGACTAGGACGACGACGAGGATGACGAC (double strand) [30-mer dsDNA] showed pKd equal to 7.34

---

Tested on: TMR-RRRK-NH2 (TMR-LRLRLRLK-NH2) (synthetic)
Assay: FP
Conditions: 2 mM NaCl, pH 7.4
ATTRIBUTE_MEASURED: pKd
Answer as the number alone; pKd is minus log10 of concentration in mol/L.

According to the records, this sequence GACGACTAGGACGACGACGAGGATGACGAC (double strand) [30-mer dsDNA] displays pKd of 7.55

---

Test system: TMR-LRL-LRL-LRL-LRL-NH2 (tetra L-homo-arginine) (synthetic)
Assay: FP
Settings: 2 mM NaCl, pH 7.4
ATTRIBUTE_MEASURED: Kd (nM)
Respond with the bare value in nM.

According to the records, this sequence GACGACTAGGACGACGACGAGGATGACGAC (double strand) [30-mer dsDNA] displays Kd of 13

---

Tested on: TMR-DRDRDRDK-NH2 (synthetic)
Assay: FP
Conditions: 2 mM NaCl, pH 7.4
ATTRIBUTE_MEASURED: Kd (nM)
Respond with the bare value in nM.

According to the records, this sequence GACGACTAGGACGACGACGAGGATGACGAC (double strand) [30-mer dsDNA] displays Kd of 37

---

System: TMR-β3Kβ3Rβ3Rβ3R-NH2 (synthetic)
Assay: FP
Details: 2 mM NaCl, pH 7.4
ATTRIBUTE_MEASURED: pKd
Answer as the number alone; pKd is minus log10 of concentration in mol/L.

According to the records, this sequence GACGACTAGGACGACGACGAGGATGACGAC (double strand) [30-mer dsDNA] displays pKd of 7.39

---

Test system: TMR-DKDRDRDR-NH2 (synthetic)
Sequence: KRRR
Test: FP
Conditions: 2 mM NaCl, pH 7.4
ATTRIBUTE_MEASURED: Kd (nM)
Respond with the bare value in nM.

According to the records, this sequence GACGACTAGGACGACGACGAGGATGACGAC (double strand) [30-mer dsDNA] displays Kd of 44

---

System: TMR-KRRR-NH2 (TMR-LKLRLRLR-NH2) (synthetic)
Sequence: KRRR
Assay: FP
Settings: 2 mM NaCl, pH 7.4
ATTRIBUTE_MEASURED: Kd (nM)
Respond with the bare value in nM.

Tested on TMR-KRRR-NH2 (TMR-LKLRLRLR-NH2) (synthetic), the item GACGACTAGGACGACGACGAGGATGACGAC (double strand) [30-mer dsDNA] showed Kd equal to 46
